- Tested on: LPS-pretreated mice
- assay_comment: animal or person
- condition: LPS 1 mg/kg 24 hours i.p.
metric_name: LPS pretreated i.c.v./i.t. ratio
Write the number on its own, no unit after it.

Example compounds with recorded LPS pretreated i.c.v./i.t. ratio:
Cc1ccc(N(CCCN2CCC(Cc3ccc(C(N)=O)cc3)CC2)C(=O)C2CCN(C(=O)COCC(=O)NCCCCCCCCCNC(=O)COCC(=O)N[C@H]3CC[C@@]4(O)C5Cc6ccc(O)c7c6[C@@]4(CCN5C)[C@H]3O7)CC2)cc1Cl ... 118.62
CN1CC[C@]23c4c5ccc(O)c4O[C@H]2[C@@H](O)C=C[C@H]3[C@H]1C5 [Morphine, morphine, reference compound] ... 8.60

Consider the additional compound presented here.
State, in one line, measured LPS pretreated i.c.v./i.t. ratio of Cc1ccc(N(CCCN2CCC(Cc3ccc(C(N)=O)cc3)CC2)C(=O)C2CCN(C(=O)COCC(=O)NCCCCCCCNC(=O)COCC(=O)N[C@H]3CC[C@@]4(O)C5Cc6ccc(O)c7c6[C@@]4(CCN5C)[C@H]3O7)CC2)cc1Cl
60.7

* * *

Let's look at some compounds and their measured LPS pretreated ED50 (CI) i.t..
- Test system: LPS-pretreated mice
- assay_comment: animal or person
- condition: LPS 1 mg/kg 24 hours i.p., i.t., tail flick
Answer with a number only, understood to be in pmol/mouse.

Below: 2 compounds and their reported LPS pretreated ED50 (CI) i.t..
Cc1ccc(N(CCCN2CCC(Cc3ccc(C(N)=O)cc3)CC2)C(=O)C2CCN(C(=O)COCC(=O)NCCCCCCCCCCNC(=O)COCC(=O)N[C@H]3CC[C@@]4(O)C5Cc6ccc(O)c7c6[C@@]4(CCN5C)[C@H]3O7)CC2)cc1Cl [Compound 3e] ... 0.0149
CNC(=O)COCC(=O)NCCCCCCCNC(=O)COCC(=O)N[C@H]1CC[C@@]2(O)C3Cc4ccc(O)c5c4[C@@]2(CCN3C)[C@H]1O5 [Compound 4, reference compound] ... 21.3

Proceeding to the next compound to report its LPS pretreated ED50 (CI) i.t..
Supply reported LPS pretreated ED50 (CI) i.t. belonging to this compound: Cc1ccc(N(CCCN2CCC(Cc3ccc(C(N)=O)cc3)CC2)C(=O)C2CCN(C(=O)COCC(=O)NCCCCCCCNC(=O)COCC(=O)N[C@H]3CC[C@@]4(O)C5Cc6ccc(O)c7c6[C@@]4(CCN5C)[C@H]3O7)CC2)cc1Cl [Compound 3c]
11.4

* * *

Each entry below carries its reported LPS pretreated i.c.v./i.t. ratio.
- Tested on: LPS-pretreated mice
- assay_comment: animal or person
- condition: LPS 1 mg/kg 24 hours i.p.
Respond with the number and no other words.

The cases that follow already have their LPS pretreated i.c.v./i.t. ratio on record.
Cc1ccc(N(CCCN2CCC(Cc3ccc(C(N)=O)cc3)CC2)C(=O)C2CCN(C(=O)COCC(=O)NCCCCCNC(=O)COCC(=O)N[C@H]3CC[C@@]4(O)C5Cc6ccc(O)c7c6[C@@]4(CCN5C)[C@H]3O7)CC2)cc1Cl ... 6.38
Cc1ccc(N(CCCN2CCC(Cc3ccc(C(N)=O)cc3)CC2)C(=O)C2CCN(C(=O)COCC(=O)NCCNC(=O)COCC(=O)N[C@H]3CC[C@@]4(O)C5Cc6ccc(O)c7c6[C@@]4(CCN5C)[C@H]3O7)CC2)cc1Cl ... 5.32

Determine reported LPS pretreated i.c.v./i.t. ratio for CNC(=O)COCC(=O)NCCCCCCCNC(=O)COCC(=O)N[C@H]1CC[C@@]2(O)C3Cc4ccc(O)c5c4[C@@]2(CCN3C)[C@H]1O5 [Compound 4, reference compound] ; test system: LPS-pretreated mice.
7.93

* * *

- System: LPS-pretreated mice
- assay_comment: animal or person
- condition: LPS 1 mg/kg 24 hours i.p., i.t., tail flick
metric_name: LPS pretreated ED50 (CI) i.t. (pmol/mouse)
# value in pmol/mouse; strip the unit string

Cc1ccc(N(CCCN2CCC(Cc3ccc(C(N)=O)cc3)CC2)C(=O)C2CCN(C(=O)COCC(=O)NCCCCCNC(=O)COCC(=O)N[C@H]3CC[C@@]4(O)C5Cc6ccc(O)c7c6[C@@]4(CCN5C)[C@H]3O7)CC2)cc1Cl [Compound 3b] ... 10.9

State its LPS pretreated ED50 (CI) i.t.: CC(=O)N1CCC(C(=O)N(CCCN2CCC(Cc3ccc(C(N)=O)cc3)CC2)c2ccc(C)c(Cl)c2)CC1 [Compound 2, TAK-220, reference compound]
740

Indicate its recorded LPS pretreated ED50 (CI) i.t.; the compound in question is Cc1ccc(N(CCCN2CCC(Cc3ccc(C(N)=O)cc3)CC2)C(=O)C2CCN(C(=O)COCC(=O)NCCNC(=O)COCC(=O)N[C@H]3CC[C@@]4(O)C5Cc6ccc(O)c7c6[C@@]4(CCN5C)[C@H]3O7)CC2)cc1Cl [Compound 3a]
10.6

Return the recorded LPS pretreated ED50 (CI) i.t. value; entry: Cc1ccc(N(CCCN2CCC(Cc3ccc(C(N)=O)cc3)CC2)C(=O)C2CCN(C(=O)COCC(=O)NCCCCCCCCCNC(=O)COCC(=O)N[C@H]3CC[C@@]4(O)C5Cc6ccc(O)c7c6[C@@]4(CCN5C)[C@H]3O7)CC2)cc1Cl [Compound 3d]
8.43

Fill in reported LPS pretreated ED50 (CI) i.t. for this entry: CN1CC[C@]23c4c5ccc(O)c4O[C@H]2[C@@H](O)C=C[C@H]3[C@H]1C5 [Morphine, morphine, reference compound]
35.0

Look up LPS pretreated ED50 (CI) i.t. of Cc1ccc(N(CCCN2CCC(Cc3ccc(C(N)=O)cc3)CC2)C(=O)C2CCN(C(=O)COCC(=O)NCCCCCCCCCCCCNC(=O)COCC(=O)N[C@H]3CC[C@@]4(O)C5Cc6ccc(O)c7c6[C@@]4(CCN5C)[C@H]3O7)CC2)cc1Cl [Compound 3f] and report it.
122.70
